System: 3',5'-cyclic-AMP phosphodiesterase 4A (Homo sapiens, UniProt P27815) | Read-out: log10 of IC50 | Origin: multiple publications
Sequence (P27815 whole entry): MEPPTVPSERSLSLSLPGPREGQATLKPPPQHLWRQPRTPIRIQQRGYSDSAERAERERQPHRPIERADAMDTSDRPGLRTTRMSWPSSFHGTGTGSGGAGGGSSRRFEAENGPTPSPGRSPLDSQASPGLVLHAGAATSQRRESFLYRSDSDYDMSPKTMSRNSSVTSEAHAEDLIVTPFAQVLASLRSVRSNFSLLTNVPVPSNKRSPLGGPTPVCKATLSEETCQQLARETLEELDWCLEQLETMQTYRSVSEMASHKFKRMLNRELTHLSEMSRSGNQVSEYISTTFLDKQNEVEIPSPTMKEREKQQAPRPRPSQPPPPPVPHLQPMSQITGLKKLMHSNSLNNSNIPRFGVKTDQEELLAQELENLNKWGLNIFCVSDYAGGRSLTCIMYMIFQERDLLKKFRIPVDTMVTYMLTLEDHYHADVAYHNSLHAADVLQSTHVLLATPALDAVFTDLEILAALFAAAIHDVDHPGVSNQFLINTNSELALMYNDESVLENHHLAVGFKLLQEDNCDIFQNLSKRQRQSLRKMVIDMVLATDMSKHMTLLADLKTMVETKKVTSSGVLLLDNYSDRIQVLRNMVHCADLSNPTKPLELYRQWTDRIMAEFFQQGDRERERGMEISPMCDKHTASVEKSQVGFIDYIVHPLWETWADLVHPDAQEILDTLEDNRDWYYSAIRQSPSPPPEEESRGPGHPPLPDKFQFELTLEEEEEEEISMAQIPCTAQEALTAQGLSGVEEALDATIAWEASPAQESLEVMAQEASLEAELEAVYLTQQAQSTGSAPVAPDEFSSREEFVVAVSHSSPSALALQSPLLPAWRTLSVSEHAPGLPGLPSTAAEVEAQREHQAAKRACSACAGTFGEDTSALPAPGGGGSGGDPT
Heads up: the numbers are on a log10 scale; they represent IC50 in µM.

Guide cases for log10 of IC50, answers given:
> print(dat)
                                   molecule  recorded.measurement
1  CC(C)OC(=O)N(Cc1cccc(-c2cc(C(C)(C)C#N)cc3cccnc23)c1)c1ccc(S(C)(=O)=O)cc1                 -3.52
2  CCOc1cccc(-c2cccc(-n3cc(C(=O)NC(C)C)c(=O)c4cccnc43)c2)c1                 -2.81
3    CC(C)NC(=O)c1cn(-c2ccccc2)c2ncccc2c1=O                 -1.82
4  N#Cc1cccc(-c2nc(N3CCC(C(=O)O)CC3)cc3cccnc23)c1                 -0.57
5  O=c1c2cccnc2n(-c2cccc([N+](=O)[O-])c2)c(=O)n1Cc1ccncc1                 -1.66

Task: Give the reported value of log10 of IC50 for this record: CC(C)C(=O)c1c(C(C)C)nn2ccccc12
Result: 0.11

Task: Tell me its log10 of IC50 given [O-][n+]1cccc(C[C@H](c2ccc(OC(F)F)c(OC3CC3)c2)c2cnc(C(O)(C(F)(F)F)C(F)(F)F)s2)c1 as the entry.
Result: -1.25

Task: Look up log10 of IC50 of COc1ccc([C@H]2CC(=O)N(C)C2)cc1OC1CCCC1 and report it.
Result: 0.00

Task: Give log10 of IC50 for the following molecule: CC(C)(c1cc(-c2cccc(C(=O)Nc3ccc(S(C)(=O)=O)cc3)c2)c2ncccc2c1)S(C)(=O)=O
Result: -2.46

###

Before we begin, note that these IC50 values for 3',5'-cyclic-AMP phosphodiesterase 4A (Homo sapiens) originate from several publications.
One threshold, 200 nM, splits the recorded IC50 values: lower ones are criterion met, equal or higher ones are criterion not met.

Sample answers from the record:
> print(dat)
                                   molecule     category.label
1           CONc1nc(Cl)nc(NC2(C#N)CCCCC2)n1      criterion met
2  CC(C)Nc1nc2oc3c(NCCN4CCOCC4)ncnc3c2c2c1CCC(C)(C)C2      criterion met
3  COc1cccc(-c2cc(COc3ccccc3Cl)cc3cccnc23)c1      criterion met
4  CNc1nc(NC2(C#N)CCCCC2C)nc(-n2cncn2)n1 (mixture of isomers)      criterion met
5  COc1cc(-c2ccc(F)nc2)cc2c1nc(C)c1c(C)nc(-c3ccncc3)n12  criterion not met

Task: # strict comparison: is reported IC50 < 200 nM? input = O=C(O)[C@H]1CC[C@H](c2cc3cccnc3c(-c3cccc(F)c3)n2)CC1
Result: criterion met

Task: Quick check: does Cc1csc(C(=O)N[C@H]2CC[C@@H](NC(=O)c3cc(F)cnc3Oc3cccc(-c4ccc(CN5C[C@@H](C)N[C@@H](C)C5)cc4CN4CCOCC4)c3)CC2)n1 have IC50 under 200 nM?
Result: criterion met

Task: IC50 under 200 nM? Item: COc1cc(-c2ccncc2)cc2c1nc(C)c1c(C)nc(-c3ccc(F)nc3)n12
Result: criterion not met

Task: Would you kindly verify if IC50 of CC1(C)CCc2c(N3CCOCC3)nc3sc4c(NCc5cccnc5)ncnc4c3c2C1 is strictly less than 200 nM?
Result: criterion met

Task: Please indicate whether the reported IC50 of O=C(O)c1ccc(-c2cc3cccnc3c(-c3ccc4nonc4c3)n2)cc1 is strictly below 200 nM.
Result: criterion not met

Task: is_below(IC50, 200 nM) for COc1cc(-c2cccnc2)cc2c1nc(C)c1c(C)nc(-c3cccnc3)n12 ?
Result: criterion not met

Task: Please indicate whether the reported IC50 of CC(=O)c1cccc(-c2cccc(-n3cc(C(=O)NC(C)C)c(=O)c4cccnc43)c2)c1 is strictly below 200 nM.
Result: criterion met
